Origin of the recorded values: ChEMBL document CHEMBL1909502

Form field: minimal effective dose (one value per entry).
System: Mus musculus
Assay info: Anticonvulsant activity in ip dosed Swiss albino CF1 mouse assessed as protection against maximal electroshock-induced seizures after 4 hrs
Format: functional
Test parameters: read-out: MED
Please reply with the bare figure in mg/kg and do not write the unit itself.

Examples with their reported minimal effective dose follow.
Data point: COc1ccc(C2SCC(=O)N2NC(=O)CN2C(=O)c3ccccc3C2=O)cc1OC (stereo not drawn) ; minimal effective dose = 300

Just so you know, measured minimal effective dose for O=C(CN1C(=O)c2ccccc2C1=O)NN1C(=O)CSC1c1ccccc1 (stereo not drawn) came out at 100

Entry CN(C)c1ccc(C2SCC(=O)N2NC(=O)CN2C(=O)c3ccccc3C2=O)cc1 (stereo not drawn) ; minimal effective dose = 300

GET /value?item= O=C(CN1C(=O)c2ccccc2C1=O)NN1C(=O)CSC1c1ccccc1O (stereo not drawn) &field=minimal effective dose returns 100

For record O=C(CN1C(=O)c2ccccc2C1=O)NN1C(=O)CSC1c1ccc(Cl)cc1 (stereo not drawn) the listed minimal effective dose is 300

Looking up O=C(CN1C(=O)c2ccccc2C1=O)NN1C(=O)CSC1c1ccc(Cl)cc1Cl (stereo not drawn) , I see its minimal effective dose listed as 30

O=C(CN1C(=O)c2ccccc2C1=O)NN1C(=O)CSC1c1c[nH]c2ccccc12 (stereo not drawn) has a reported minimal effective dose of 300

Kindly review the next molecule as well.
Please fill in: minimal effective dose reported for O=C(CN1C(=O)c2ccccc2C1=O)NN1C(=O)CSC1c1cccnc1 (stereo not drawn) = 300
